# studyTarget: T1, EsCas13d, nuclease-dead (Eubacterium siraeum, UniProt B0MS50, R295A;H300A;R849A;H854A)
# T1 sequence: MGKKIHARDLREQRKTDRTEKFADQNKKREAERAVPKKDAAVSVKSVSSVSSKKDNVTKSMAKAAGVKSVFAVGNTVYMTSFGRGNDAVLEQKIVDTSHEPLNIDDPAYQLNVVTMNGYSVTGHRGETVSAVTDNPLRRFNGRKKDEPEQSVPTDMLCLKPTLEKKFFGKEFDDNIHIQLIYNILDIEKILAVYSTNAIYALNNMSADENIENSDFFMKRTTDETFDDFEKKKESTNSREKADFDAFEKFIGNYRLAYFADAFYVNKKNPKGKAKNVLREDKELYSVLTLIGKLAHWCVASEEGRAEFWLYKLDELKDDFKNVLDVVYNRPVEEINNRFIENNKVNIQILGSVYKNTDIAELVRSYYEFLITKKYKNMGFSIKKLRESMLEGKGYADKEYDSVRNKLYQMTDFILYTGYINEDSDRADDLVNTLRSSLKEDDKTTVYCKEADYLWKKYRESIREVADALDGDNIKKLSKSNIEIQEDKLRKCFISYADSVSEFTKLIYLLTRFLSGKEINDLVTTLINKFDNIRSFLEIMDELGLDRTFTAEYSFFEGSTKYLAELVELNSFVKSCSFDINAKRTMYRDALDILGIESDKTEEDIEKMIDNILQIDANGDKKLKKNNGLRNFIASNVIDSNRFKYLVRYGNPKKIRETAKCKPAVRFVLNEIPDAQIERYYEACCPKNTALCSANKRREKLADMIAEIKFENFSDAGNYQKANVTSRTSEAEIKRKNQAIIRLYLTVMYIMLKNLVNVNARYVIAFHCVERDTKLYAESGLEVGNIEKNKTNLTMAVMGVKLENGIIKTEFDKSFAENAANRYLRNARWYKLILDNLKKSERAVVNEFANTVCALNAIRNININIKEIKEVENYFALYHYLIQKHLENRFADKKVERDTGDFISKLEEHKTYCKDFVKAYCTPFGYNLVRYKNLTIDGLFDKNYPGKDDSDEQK
# experimentDescription: crRNA (strand 1, pre-loaded); Mg2+; 40 mM Tris-HCl pH 7.5, 150 mM NaCl, 6 mM MgCl2, 1 mM DTT, 0.1% Tween-20, 0.2 mg/ml BSA; 25 C; 10 min per concentration, then washed
# experimentalConditions: tags: His6-TwinStrep-SUMO cleaved; N-terminal SNAP kept (SNAP-Surface 488); label: 3' end held by stalled T7 RNA polymerase
measure: log10 Kd (log10 of the value in nM)
Friendly reminder: values = log10 of Kd, unit nM.

# binder, log10 Kd
data = [
    ("target 2 MT 5'PFS CUA 3'PFS CAC (mixed) RNA 1: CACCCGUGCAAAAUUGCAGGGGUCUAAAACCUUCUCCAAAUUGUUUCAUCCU RNA 2: GGGAAUGGAUCCACAUCUACGAAUUCCUAAGGAUGAAACAAUUUGGAGAAGCACAGAUCGGAAGAGCACACGU", 0.48),
    ("target 1 C4G,G12C (mixed) RNA 1: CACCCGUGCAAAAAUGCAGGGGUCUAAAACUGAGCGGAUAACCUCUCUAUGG RNA 2: GGGAAUGGAUCCACAUCUACGAAUUCGUACCAUAGAGAGCUUAUCCGGUCACCGAGAUCGGAAGAGCACACGU", 1.26),
    ("target 2 MT 5'PFS CUG 3'PFS CAA (mixed) RNA 1: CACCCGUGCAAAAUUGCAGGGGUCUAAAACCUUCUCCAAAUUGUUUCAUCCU RNA 2: GGGAAUGGAUCCACAUCUACGAAUUCCUGAGGAUGAAACAAUUUGGAGAAGCAAAGAUCGGAAGAGCACACGU", 0.38),
    ("target 2 MT 5'PFS CAG 3'PFS ACU (mixed) RNA 1: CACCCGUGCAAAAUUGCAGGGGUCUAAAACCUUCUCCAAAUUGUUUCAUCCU RNA 2: GGGAAUGGAUCCACAUCUACGAAUUCCAGAGGAUGAAACAAUUUGGAGAAGACUAGAUCGGAAGAGCACACGU", 0.79),
]

Consider target 1 A9G,G13A (mixed) RNA 1: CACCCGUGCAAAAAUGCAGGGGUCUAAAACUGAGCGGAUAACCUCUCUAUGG RNA 2: GGGAAUGGAUCCACAUCUACGAAUUCGUACCAUAGAGAAGUUGUCCGCUCACCGAGAUCGGAAGAGCACACGU . Its measured log10 Kd is 0.92

Consider target 1 insU 3' of 12,insG 3' of 11 (mixed) RNA 1: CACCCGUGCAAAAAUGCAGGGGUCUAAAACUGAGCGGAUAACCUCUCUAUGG RNA 2: GGGAAUGGAUCCACAUCUACGAAUUCGUACCAUAGAGAGGUUGUAUCCGCUCACCGAGAUCGGAAGAGCACACGU . Its measured log10 Kd is 1.03

Consider target 1 MT 5'PFS AGA 3'PFS UUA (mixed) RNA 1: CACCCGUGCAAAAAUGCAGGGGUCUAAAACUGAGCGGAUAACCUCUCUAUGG RNA 2: GGGAAUGGAUCCACAUCUACGAAUUCAGACCAUAGAGAGGUUAUCCGCUCAUUAAGAUCGGAAGAGCACACGU . Its measured log10 Kd is 1.62

Consider target 1 insG 3' of 18,insU 3' of 5 (mixed) RNA 1: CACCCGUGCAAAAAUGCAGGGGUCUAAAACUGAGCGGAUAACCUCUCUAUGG RNA 2: GGGAAUGGAUCCACAUCUACGAAUUCGUACCAUAGGAGAGGUUAUCCGUCUCACCGAGAUCGGAAGAGCACACGU . Its measured log10 Kd is 1.81

Consider target 3 U2C,G4U (mixed) RNA 1: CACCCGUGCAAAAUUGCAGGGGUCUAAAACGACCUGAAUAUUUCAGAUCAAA RNA 2: GGGAAUGGAUCCACAUCUACGAAUUCGUUUUUGAUCUGAAAUAUUCAUGCCUGCAGAUCGGAAGAGCACACGU . Its measured log10 Kd is 1.36

Consider target 2 MT 5'PFS CGC 3'PFS UCG (mixed) RNA 1: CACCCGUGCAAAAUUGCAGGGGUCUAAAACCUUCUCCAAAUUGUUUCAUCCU RNA 2: GGGAAUGGAUCCACAUCUACGAAUUCCGCAGGAUGAAACAAUUUGGAGAAGUCGAGAUCGGAAGAGCACACGU . Its measured log10 Kd is 0.90

Consider target 2 MT 5'PFS CUC 3'PFS ACC (mixed) RNA 1: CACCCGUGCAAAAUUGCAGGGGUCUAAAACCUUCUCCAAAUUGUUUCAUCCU RNA 2: GGGAAUGGAUCCACAUCUACGAAUUCCUCAGGAUGAAACAAUUUGGAGAAGACCAGAUCGGAAGAGCACACGU . Its measured log10 Kd is 0.36

Consider target 1 MT 5'PFS GCA 3'PFS CAU (mixed) RNA 1: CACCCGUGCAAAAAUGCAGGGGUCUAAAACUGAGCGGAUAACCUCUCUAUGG RNA 2: GGGAAUGGAUCCACAUCUACGAAUUCGCACCAUAGAGAGGUUAUCCGCUCACAUAGAUCGGAAGAGCACACGU . Its measured log10 Kd is 1.54

Consider target 3 insU 3' of 22,insU 3' of 1 (mixed) RNA 1: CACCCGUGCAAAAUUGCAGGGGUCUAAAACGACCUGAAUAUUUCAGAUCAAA RNA 2: GGGAAUGGAUCCACAUCUACGAAUUCGUUUUUUGAUCUGAAAUAUUCAGGUCUUGCAGAUCGGAAGAGCACACGU . Its measured log10 Kd is 1.89

Consider target 3 insU 3' of 22,insU 3' of 16 (mixed) RNA 1: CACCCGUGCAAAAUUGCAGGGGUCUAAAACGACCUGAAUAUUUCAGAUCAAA RNA 2: GGGAAUGGAUCCACAUCUACGAAUUCGUUUUUUGAUCUUGAAAUAUUCAGGUCUGCAGAUCGGAAGAGCACACGU . Its measured log10 Kd is 1.76
